- assay target: RSV F on RSV-A2 virus (Respiratory syncytial virus, RSV-A2, UniProt P03420 26-574)
- measurement notes: cell-based or functional assay
Provide the reported Neutralization IC50 (RSV subtype A) of each item.
Numbers only, in µg/mL.

Qu. State its Neutralization IC50 (RSV subtype A) for this binder: ADI-41585 (antibody, V domains shown) VH: EVQLLESGGGLVKPGGSLRLSCAASGFTFADYYMSWIRQAPGKGLEWVSYISGGSSFTNYADSVKGRFTISRDNAKNSLYLQMNSLRADDTAVYYCARGISPALGGGEYFQDWGQGTLVTVSS VL: QPVLTQPPSVSGAPGQRVTISCTGSSSNIGAGYDVHWYQHLPGTAPKLLIYGNSNRPSGVPDRFSGSKSSTSASLAITGLQAEDEADYYCQSYDSSLGGYVFGTGTKVTVL
Ans. 0.0641

Now for a further binder.
Qu. State its Neutralization IC50 (RSV subtype A) for this binder: ADI-41570 (antibody, V domains shown, also called Ab 848; Antibody Number 848) VH: QVQLVQSGAEVKKPGSSVKVSCMASGGTFSNSAINWVRQAPGQGLEWMGGTIPIFGAANYAQRFQARVTITADKSTSTAYMELTSLRSDDTAVYYCVRTPHRSSDHIWGSYRYFDSWGQGTLVTVSS VL: QSVVTQEPSVSAAPGQKITISCSGSTSNIGINYVSWYQQFPGTAPKLLIYDNDKRPSGIPDRFSGSKSGTSATLGITGLQAGDEADYYCGTWDSSLSAGHIFGGGTKVTVL
Ans. 25

The reported measurements were obtained from patent US20260258115A1.
